Target: T1, human TL1A (human, UniProt O95150 72-251)
T1 construct: Antigen in SPR and ELISA; Also used here for places that print only 'TL1A' and for endogenous TL1A in human whole blood; also called TNFSF15
T1 sequence (looked up): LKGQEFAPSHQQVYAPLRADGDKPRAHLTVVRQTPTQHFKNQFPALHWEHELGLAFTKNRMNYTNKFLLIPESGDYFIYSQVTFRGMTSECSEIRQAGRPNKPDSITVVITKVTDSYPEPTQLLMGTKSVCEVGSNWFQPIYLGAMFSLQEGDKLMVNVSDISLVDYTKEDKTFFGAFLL
Test: SPR, Fab lysate, average
Form field: pKd (one value per entry).
Field pKd (float): negative decimal logarithm of the concentration in molar.

Some solved cases for reference:
1) Antibody 16 (Fab format) (Fab, V domains shown, High priority lead, Fab format) VH: QVQLQESGPGLVRPSQTLSLTCTVSGFDMQSTYMHWVRQRPGRGLEWMGRIEPAGGHTKYNPSLKSRVTITRDTSKNQVSLRLSSVTAADTAVYYCVRSGGLPDVWGQGSLVTVSS VL: DIQMTQSPSSLSASVGDRVTITCRASQGVEYMYWYQQKPGKAPKLLIYGASNLASGVPSRFSGSGSGTDFTFTISSLQPEDIATYYCQQWEGNPRTFGQGTKVEIK    9.29
2) Antibody 17 (Fab format) (Fab, V domains shown, High priority lead, Fab format) VH: QVQLQESGPGLVRPSQTLSLTCTVSGFDMGDTYMHWVRQRPGRGLEWMGRIEPAAGHTKYNPSLKSRVTITRDTSKNQVSLRLSSVTAADTAVYYCVRSGGLPDVWGQGSLVTVSS VL: DIQMTQSPSSLSASVGDRVTITCRASQGVEYMYWYQQKPGKAPKLLIYGASNLASGVPSRFSGSGSGTDFTFTISSLQPEDIATYYCQQWEGNPRTFGQGTKVEIK    9.24

Entry under test: Antibody 6 (Fab format) (Fab, V domains shown, High priority lead, Fab format) VH: QVQLQESGPGLVRPSQTLSLTCTVSGFDMADTYMHWVRQRPGRGLEWMGRIEPAGGHTKYNPSLKSRVTITRDTSKNQVSLRLSSVTAADTAVYYCVRSGGLPDMWGQGSLVTVSS VL: DIQMTQSPSSLSASVGDRVTITCRASQGVEYMYWYQQKPGKAPKLLIYSASNLASGVPSRFSGSGSGTDFTFTISSLQPEDIATYYCQQWEGNPRTFGQGTKVEIK . Its pKd was 9.39
